- measurement.notes: Half life in mouse at 2.5 mg/kg, po by LC-MS/MS analysis
- Assay type: ADME, organism-based
- reported.conditions: in vivo

{"compound.structure": "Cn1c(=O)n(CC(=O)N2CCC2)c2cc(-c3ccc(C(F)(F)F)s3)cnc21", "half-life": "2.4 h"}

###

- measurement.notes: Half life in dog at 0.1 mg/kg, iv by LC-MS/MS analysis
- Assay type: ADME, organism-based, Canis lupus familiaris
- reported.conditions: in vivo
reported.property: half-life (min)

{"compound.structure": "Cn1c(=O)n(CC(=O)N2CCC2)c2cc(-c3ccc(C(F)(F)F)s3)cnc21", "reported.property": "half-life", "unit.symbol": "min", "meas.value": 48}

The reported numbers originate from ChEMBL document CHEMBL4725355.
